This collection of values is drawn from patent US20130236467A1.

Target: recombinant human VEGF (hVEGF-165) (human) (UniProt P15692)
Experiment: Proteon SPR estimate, mAb-dAb in transfection supernatant
Recorded measurements of Kd, one per entry
// return numeric value only (unit: pM, not printed)

Binder | Kd / pM
DT02-K-044-239 in Pascolizumab-(GSTVAAPS)3-T mAb-dAb format (bispecific antibody, part only; not given: Pascolizumab chains and linker, not shown: another chain or arm of the molecule; large carriers; small tags and cut ends) dAb: DIQMTQSPSSLSASVGDRVTITCRASQWIGPELSWYQQKPGKAPKLLIYHGSILQSGVPSRFSGSGSGTDFTLTISSLQPEDFATYYCQQYMYYPNTFGQGTKVEIKR | 13
DT02-K-044-238 in Pascolizumab-(GSTVAAPS)3-T mAb-dAb format (bispecific antibody, part only; not given: Pascolizumab chains and linker, not shown: another chain or arm of the molecule; small tags and cut ends) dAb: DIQMTQSPSSLSASVGDRVTITCRASQWIGPELSWYQQKPGKAPKLLIYHGSILQSGVPSRFSGSGSGTDFTLTISSLQPEDFATYYCQQYMYYPMTFGQGTKVEIKR | 44

Request: Given the binder DT02-K-044-232 in Pascolizumab-(GSTVAAPS)3-T mAb-dAb format (bispecific antibody, part only; not given: pascolizumab chains and linker, not shown: another chain or arm of the molecule; small tags and cut ends) dAb: DIQMTQSPSSLSASVGDRVTITCRASQWIGPELSWYQQKPGKAPKLLIYHGSILQSGVPSRFSGSGSGTDFTLTISSLQPEDFATYYCQQYMYYPETFGQGTKVEIKR , write its reported Kd.
Response: 4

Request: Given the binder DT02-K-044-235 in Pascolizumab-(GSTVAAPS)3-T mAb-dAb format (bispecific antibody, part only; not given: pascolizumab chains and linker, not shown: another chain or arm of the molecule; small tags and cut ends) dAb: DIQMTQSPSSLSASVGDRVTITCRASQWIGPELSWYQQKPGKAPKLLIYHGSILQSGVPSRFSGSGSGTDFTLTISSLQPEDFATYYCQQYMYYPITFGQGTKVEIKR , write its reported Kd.
Response: 4

Request: Given the binder DT02-K-044-229 in Pascolizumab-(GSTVAAPS)3-T mAb-dAb format (bispecific antibody, part only; not given: pascolizumab chains and linker, not shown: another chain or arm of the molecule; small tags and cut ends) dAb: DIQMTQSPSSLSASVGDRVTITCRASQWIGPELSWYQQKPGKAPKLLIYHGSILQSGVPSRFSGSGSGTDFTLTISSLQPEDFATYYCQQYMYYPATFGQGTKVEIKR , write its reported Kd.
Response: 2

Request: Given the binder DT02-K-044-095 in Pascolizumab-(GSTVAAPS)3-T mAb-dAb format (bispecific antibody, part only; not given: pascolizumab chains and linker, not shown: another chain or arm of the molecule; large carriers; small tags and cut ends) dAb: DIQMTQSPSSLSASVGDRVTITCRASQWIGPELYWYQQKPGKAPKLLIYHGSILQSGVPSRFSGSGSGTDFTLTISSLQPEDFATYYCQQYMYYPHTFGQGTKVEIKR , write its reported Kd.
Response: 6

Request: Given the binder DT02-K-044-087 in Pascolizumab-(GSTVAAPS)3-T mAb-dAb format (bispecific antibody, part only; not given: pascolizumab chains and linker, not shown: another chain or arm of the molecule; large carriers; small tags and cut ends) dAb: DIQMTQSPSSLSASVGDRVTITCRASQWIGPELMWYQQKPGKAPKLLIYHGSILQSGVPSRFSGSGSGTDFTLTISSLQPEDFATYYCQQYMYYPHTFGQGTKVEIKR , write its reported Kd.
Response: 5

Request: Given the binder DT02-K-044-247 in Pascolizumab-(GSTVAAPS)3-T mAb-dAb format (bispecific antibody, part only; not given: pascolizumab chains and linker, not shown: another chain or arm of the molecule; large carriers; small tags and cut ends) dAb: DIQMTQSPSSLSASVGDRVTITCRASQWIGPELSWYQQKPGKAPKLLIYHGSILQSGVPSRFSGSGSGTDFTLTISSLQPEDFATYYCQQYMYYPYTFGQGTKVEIKR , write its reported Kd.
Response: 18
